Kindly find below IC50 information for Adenosine receptor A2a (Homo sapiens) taken from the literature.

Cc1nc2c(-c3ccc(F)cc3)nc(N)c(Br)n2n1 ... < 10 nM
CCC(=O)Nc1cn2cc(C)nc2c(-c2ccco2)n1 ... < 10 nM
Cc1nc2cc(NC(=O)C3CC3)nc(-c3ccc(F)o3)n2n1 ... < 10 nM
C[C@@H](NC(=O)c1nc(-c2cc(Cl)c3[nH]ncc3c2)c(-c2ccn(C)n2)nc1N)c1ccccn1 ... 1.6 nM
Cc1nc2nc(N[C@@H](C)c3cccnc3)nc(C(=O)N3CC(NC(=O)c4cccc(F)c4)C3)c2s1 ... < 100 nM

Quick check: IC50 on Adenosine receptor A2a (Homo sapiens), item Cc1nc2nc(N[C@@H](C)c3cccnc3)nc(C(=O)N3CC(NC(=O)C4(C)CC4)C3)c2s1 ?
< 100 nM

Quick check: IC50 on Adenosine receptor A2a (Homo sapiens), item NCCC(=O)N(CCc1c[nH]c2ccccc12)C(C(=O)NCc1ccccc1)c1ccc(Br)cc1Br (centres unmarked) ?
5110 nM

Quick check: IC50 on Adenosine receptor A2a (Homo sapiens), item Cc1ccc(-c2nc(NC(=O)C3CC3)cn3nc(C(F)(F)F)nc23)o1 ?
< 10 nM

###

Kindly find below IC50 information for Adenosine receptor A2a (Homo sapiens) taken from the literature.

These solved cases illustrate the format of a correct answer.
Cc1nc2c3c(nc(-c4ccc(C)o4)n2n1)NCC3(C)C ... 10 to 100 nM
Cc1nc2nc(N[C@@H](C)c3cccnc3)nc(C(=O)NC[C@@H](C)O)c2s1 ... > 1000 nM

Which IC50 reading was recorded for the molecule CC(=O)Nc1cc2nc(C)nn2c(-c2cnco2)n1 ?
100 to 1000 nM

Which IC50 reading was recorded for the molecule Cc1ccc(-c2nc(N)cn3ncnc23)o1 ?
100 to 1000 nM

Which IC50 reading was recorded for the molecule Cc1nc2c3cn[nH]c3nc(-c3ccc(C)o3)n2n1 ?
10 to 100 nM

Which IC50 reading was recorded for the molecule COc1ccc(-c2nc(NC(=O)OC(C)(C)C)cc3nc(C)nn23)cc1 ?
> 1000 nM

Which IC50 reading was recorded for the molecule CCNC(=O)Nc1cc2nc(C)nn2c(-c2ccco2)n1 ?
10 to 100 nM

Which IC50 reading was recorded for the molecule CC(NC(=O)c1nc(-c2ccc3ncccc3c2)c(-c2ccn(C)n2)nc1N)c1cccc(C#N)n1 (stereo not drawn) ?
3.9 nM

Which IC50 reading was recorded for the molecule Cc1nc2cc(NC(=O)C3CN(C)C3)nc(-c3ccc(C)o3)n2n1 ?
< 10 nM

###

Kindly find below IC50 information for Adenosine receptor A2a (Homo sapiens) taken from the literature.

CC(=O)Nc1cn2cc(C)nc2c(-c2ccc(C)o2)n1 ... < 10 nM
Cc1nc2nc(N[C@@H](C)c3ccccn3)nc(C(=O)N3CC[C@@H](O)C3)c2s1 ... > 1000 nM
CCCC(=O)Nc1cn2cc(C)nc2c(-c2ccco2)n1 ... 10 to 100 nM
CC(=O)Nc1cc2nc(C(C)C)nn2c(-c2cnco2)n1 ... 10 to 100 nM
Cc1nc2cc(N)nc(-c3ccc(C)o3)n2n1 ... < 10 nM

Quick check: IC50 on Adenosine receptor A2a (Homo sapiens), item Cc1cn2c(Br)c(N)nc(-c3ccc(F)cc3)c2n1 ?
100 to 1000 nM

Quick check: IC50 on Adenosine receptor A2a (Homo sapiens), item Cc1ccc(-c2nc3[nH]c(C(C)(C)O)cc3c3nc(C(C)C)nn23)o1 ?
< 10 nM

Quick check: IC50 on Adenosine receptor A2a (Homo sapiens), item COC[C@H]1CCN(C(=O)c2nc(N[C@@H](C)c3cncc(F)c3)nc3nc(C)sc23)C1 ?
100 to 1000 nM

Quick check: IC50 on Adenosine receptor A2a (Homo sapiens), item Cc1nc2nc(N[C@@H](C)c3cncc(F)c3)nc(C(=O)N3CC(NC(=O)NC(C)(C)C)C3)c2s1 ?
< 100 nM

Quick check: IC50 on Adenosine receptor A2a (Homo sapiens), item CC(=O)NC1CN(C(=O)c2nc(N[C@@H](C)c3cncc(F)c3)nc3nc(C)sc23)C1 ?
100 to 1000 nM

Quick check: IC50 on Adenosine receptor A2a (Homo sapiens), item Cc1ccc(-c2nc(NC(=O)C3CC3)cn3cc(CO)nc23)o1 ?
< 10 nM

Quick check: IC50 on Adenosine receptor A2a (Homo sapiens), item Cc1ccc(-c2nc(NC(=O)C3CC3)cc3nc(C(F)(F)F)nn23)o1 ?
< 10 nM

Quick check: IC50 on Adenosine receptor A2a (Homo sapiens), item Cc1nc2cc(N)nc(-c3ccc(F)c(F)c3)n2n1 ?
10 to 100 nM

Quick check: IC50 on Adenosine receptor A2a (Homo sapiens), item Nc1nc(-c2ccccc2)n2nc(C(F)F)nc2c1Cl ?
< 10 nM

Quick check: IC50 on Adenosine receptor A2a (Homo sapiens), item N#Cc1cccc(-c2nc3[nH]ccc(=O)c3cc2-c2ccc3[nH]cnc3c2)c1 ?
17 nM

Quick check: IC50 on Adenosine receptor A2a (Homo sapiens), item O=C(Nc1cc2nc(CF)nn2c(-c2ccco2)n1)C1CC1 ?
< 10 nM

Quick check: IC50 on Adenosine receptor A2a (Homo sapiens), item CNC(=O)Nc1cn2cc(C)nc2c(-c2ccco2)n1 ?
10 to 100 nM

Quick check: IC50 on Adenosine receptor A2a (Homo sapiens), item Cc1nc2cc(NC(=O)NCCN3CCOCC3)nc(-c3ccco3)n2n1 ?
< 10 nM

Quick check: IC50 on Adenosine receptor A2a (Homo sapiens), item N#Cc1cccc(-c2nc(N)cnc2-c2cc(Cl)c3ncccc3c2)c1 ?
3.7 nM

Quick check: IC50 on Adenosine receptor A2a (Homo sapiens), item Cc1ccc(-c2nc(NC(=O)C3CC3)cc3nc(-c4ccco4)nn23)o1 ?
< 10 nM

Quick check: IC50 on Adenosine receptor A2a (Homo sapiens), item CC(=O)c1cccc(-c2nc(NC(=O)OC(C)(C)C)cc3nc(C)nn23)c1 ?
> 1000 nM

Quick check: IC50 on Adenosine receptor A2a (Homo sapiens), item CC(=O)Nc1cc2nc(C3COC3)nn2c(-c2ccco2)n1 ?
< 10 nM
